Let's look at some compounds and their measured pIC50.
target-of-assay: Jak3 (Homo sapiens)
Construct: Jak3 enzyme (aa 811-1103); GST
Sequence (P52333 811-1103): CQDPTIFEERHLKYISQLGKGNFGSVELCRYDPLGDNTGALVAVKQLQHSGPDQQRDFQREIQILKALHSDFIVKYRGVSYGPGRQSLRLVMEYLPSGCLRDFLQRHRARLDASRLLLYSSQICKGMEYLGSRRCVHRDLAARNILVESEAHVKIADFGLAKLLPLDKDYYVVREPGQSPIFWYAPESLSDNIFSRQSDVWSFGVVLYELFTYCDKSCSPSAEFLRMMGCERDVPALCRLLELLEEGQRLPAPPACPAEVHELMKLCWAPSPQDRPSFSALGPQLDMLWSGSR
assay-name: Jak3 enzyme data for selected compounds
pIC50: −log10 of the molar value.

compound: CC[C@@H]1C[C@H](OCC2CC2)C[C@@H]1c1nnc2cnc3[nH]ccc3n12 (single isomer, unassigned)
result: < 6.00
//
compound: CC[C@@H]1C[C@@H](OCC2CC2)C[C@@H]1c1nnc2cnc3[nH]ccc3n12 (single isomer, unassigned)
result: 6.00 to 7.00
//
compound: C[C@H]1CCN(S(=O)(=O)CCC(F)(F)F)C[C@@H]1Nc1ncc2cnc3[nH]ccc3n12 (racemic)
result: < 6.00

Turning now to a further record.
Request body: readout pIC50, system Jak3 (Homo sapiens), query CC[C@@H]1C[C@@H](Oc2ccc(C#N)c(F)c2)C[C@@H]1c1nnc2cnc3[nH]ccc3n12 (single isomer, unassigned) . Return the value. > 7.00

----------
target-of-assay: Jak3 (Homo sapiens)
Construct: Jak3 enzyme (aa 811-1103); GST
assay-name: Jak3 enzyme data for selected compounds
pIC50: −log10 of the molar value.
property: pIC50

Study these solved cases before continuing.
compound: CC1CCN(S(=O)(=O)CCC(F)(F)F)CCN1c1ncc2cnc3[nH]ccc3n12 (stereo not drawn) [D.1.70]
pIC50: 6.00 to 7.00
//
compound: N#CC1CCN(C(=O)N2CCC[C@@H](c3ncc4cnc5[nH]ccc5n34)C2)CC1 [J.3.8]
pIC50: 6.00 to 7.00

Would you kindly share the measured pIC50 for O=S(=O)(NC12CCC(c3nnc4cnc5[nH]ccc5n34)(CC1)CC2)N1CCC1 [D.1.29] ? 6.00 to 7.00

----------
The following compounds are listed with their measured IC50 values.
target-of-assay: Jak3 (Homo sapiens)
Construct: Jak3 enzyme (aa 811-1103); expressed in SF9 cells as a GST fusion; GST; made in house; host or cells: SF9 insect cells
assay-name: Jak3 enzyme data for selected compounds
Type: biochemical
Structures can show the parent of a compound that is named as a salt.

These recorded examples may help you get a feel for the data.
compound: O=S(=O)(NC12CCC(c3ccc4cnc5[nH]ccc5n34)(CC1)CC2)C1CC1
result: 100 to 1000 nM
--
compound: CC[C@@H]1C[C@H](Nc2cnc(C#N)cn2)CN1c1ncc2cnc3[nH]ccc3n12 [Example #26, oxalate]
result: 100 to 1000 nM
--
compound: C[C@@H]1C[C@H](NS(=O)(=O)N2CC(F)(F)C2)C[C@@H]1c1ncc2cnc3[nH]ccc3n12
result: < 100 nM
--
compound: C[C@@H]1CCN(C(=O)N2CCOCC2)C[C@@H]1c1ncc2cnc3[nH]ccc3n12
result: < 100 nM

Reported IC50 for "CC[C@@H]1C[C@H](NS(=O)(=O)CCC(F)(F)F)CN1c1ncc2cnc3[nH]ccc3n12" : what is it? > 1000 nM

Return reported IC50; argument: "C[C@@H]1C[C@H](Nc2cccc(C#N)c2)C[C@@H]1c1nnc2cnc3[nH]ccc3n12" > 1000 nM
